Measured values drawn from the supplement of paper PMC7801607 for this set.

List of % viability of CHO cells values.
Test system: CHO
protocol.notes: % viability of CHO cells (MTT); higher = less toxic
test.context: 20 µM; 48 h
endpoint.label: % viability of CHO cells (%)

structure_smiles_string=O=C(c1ccccc1)N1CCN(c2ccccc2NC(=O)C(Cl)(Cl)Cl)CC1 endpoint_label="% viability of CHO cells" observed_measurement=74.3
structure_smiles_string=O=c1oc2ccc(Br)cc2cc1CSc1ncc[nH]1 endpoint_label="% viability of CHO cells" observed_measurement=73.8
structure_smiles_string=CC(C)Nc1ncnc2c1cnn2-c1ccc(Cl)cc1 endpoint_label="% viability of CHO cells" observed_measurement=122
structure_smiles_string=CONC(=N)c1ccc(-c2ccc(-c3ccc(C(=N)NOC)cc3)o2)cc1 endpoint_label="% viability of CHO cells" observed_measurement=121
structure_smiles_string=Cc1oncc1C(=O)Nc1ccc(C(F)(F)F)cc1 endpoint_label="% viability of CHO cells" observed_measurement=96.1

----------
System: Plasmodium falciparum NF54 stage IV/V gametocytes
protocol.notes: % inhibition of gametocyte viability (PrestoBlue); higher = more inhibition
test.context: 5 µM; 48 h
List of % inhibition of gametocyte viability values.
endpoint.label: % inhibition of gametocyte viability

molecule="Clc1ccc(COC(Cn2ccnc2)c2ccc(Cl)cc2Cl)c(Cl)c1 (stereo not drawn)" study_target="Plasmodium falciparum NF54 stage IV/V gametocytes" observed_measurement="< 0%"
molecule=O=S(=O)(Nc1ccc(-n2cccc2)cc1)c1ccc(Cl)c(Cl)c1 study_target="Plasmodium falciparum NF54 stage IV/V gametocytes" observed_measurement="< 0%"
molecule=O=C(O)c1cc(-c2ccccc2)nc2ccccc12 study_target="Plasmodium falciparum NF54 stage IV/V gametocytes" observed_measurement="< 0%"

----------
System: CHO
protocol.notes: % viability of CHO cells (MTT); higher = less toxic
test.context: 20 µM; 48 h
// NB: equality with 80% counts as False; only % viability of CHO cells strictly below is True

structure_smiles_string=Cc1ccc(S(=O)(=O)Nc2cccc3cccnc23)cc1 study_target=CHO label_value=True
structure_smiles_string=Nc1cc(N)c2nc(-c3ccccc3)c(Nc3ccc(F)cc3)nc2c1 study_target=CHO label_value=False
structure_smiles_string=O=C(O)CCNC(=O)c1ccccc1 study_target=CHO label_value=True
structure_smiles_string=O=c1cc(Nc2ccc3ccccc3c2)[nH]c(=O)[nH]1 study_target=CHO label_value=False

----------
System: CHO
protocol.notes: % viability of CHO cells (MTT); higher = less toxic
test.context: 20 µM; 48 h
endpoint.label: % viability of CHO cells (%)

molecule=N#CCN1C(=O)COc2cc(F)c(N3C(=O)c4ccccc4C3=O)cc21 observed_measurement=99.3
molecule=Cc1ccc(C)c(OCCCCCCN2C[C@H](O)[C@@H](O)[C@H](O)[C@H]2CO)c1 observed_measurement=110
molecule="CC(C)(C)NC(=O)N[C@H](C(=O)N1C[C@H]2[C@@H]([C@H]1C(=O)NC(CC1CCC1)C(=O)C(N)=O)C2(C)C)C(C)(C)C (stereo partly specified)" observed_measurement=50.4
molecule=O=S(=O)(Nc1ccc(O)cc1)c1cccc2cccnc12 observed_measurement=104
molecule=NC(=O)c1c(N)sc2c1CCCCC2 observed_measurement=32
molecule=C(=C\c1nc2ccccc2[nH]1)/c1ccc2c(c1)OCO2 observed_measurement=50.4
molecule=Cn1c2ccccc2c(=O)c2c(O)cccc21 observed_measurement=55
molecule=[N-]=[N+]=N[C@H]1C[C@H](n2ccc(=O)[nH]c2=O)O[C@@H]1CO observed_measurement=102
molecule="Oc1c(C(Nc2nc3ccccc3s2)c2ccc(OC(F)F)cc2)ccc2cccnc12 (stereo unspecified)" observed_measurement=74.4
molecule=Fc1ccc(-c2nc(-c3c[nH]c4ccc(Br)cc34)[nH]c2-c2ccc(F)cc2)cc1 observed_measurement=-2.96
molecule=C[C@H]1COc2c(N3CCN(C)CC3)c(F)cc3c(=O)c(C(=O)O)cn1c23 observed_measurement=104

----------
System: Plasmodium falciparum NF54 asexual blood stage
protocol.notes: % inhibition of asexual blood stage proliferation (pLDH); higher = more inhibition
test.context: 20 µM; 72 h
endpoint.label: % inhibition of asexual blood stage proliferation (%)

compound=CCCCCOc1ccc(/C=C2\Oc3c(ccc(O)c3O)C2=O)c(O)c1 observed_measurement=90.6
compound="Nc1nc(NC2Cc3ccc(F)cc3C2)nc(N2CCCCC2)n1 (stereo not given)" observed_measurement=91
compound="Cc1ncc([N+](=O)[O-])n1CC(C)O (stereo not given)" observed_measurement=65.1
compound=NC[C@H]1OB(O)c2c(OCCCO)cccc21 observed_measurement=18.5
compound="N=c1n(CCN2CCCCC2)c2ccccc2n1CC(O)COc1ccc(Cl)cc1Cl (stereo not given)" observed_measurement=85.7
compound=O[C@@](Cn1cnnn1)(c1ccc(F)cc1F)C(F)(F)c1ccc(-c2ccc(OCC(F)(F)F)cc2)cn1 observed_measurement=82.5
compound=C=C(C)n1c(=O)n(Cc2ccccc2C)c2ccccc21 observed_measurement=48.2
compound=NC(=O)c1cnccn1 observed_measurement=70.3
compound=O=C(Nc1ccc(Cl)c(C(F)(F)F)c1)C(CCCl)C(=O)Nc1ccc(Cl)c(C(F)(F)F)c1 observed_measurement=27.7
compound=CCCCSc1nc(N)c2[nH]c(=O)c(=O)n(Cc3ccccc3)c2n1 observed_measurement=14.6

----------
Test system: Plasmodium falciparum NF54 asexual blood stage
protocol.notes: % inhibition of asexual blood stage proliferation (pLDH); higher = more inhibition
test.context: 20 µM; 72 h
endpoint.label: % inhibition of asexual blood stage proliferation (%)

structure_smiles_string=O=C(NC(=O)N1CCCc2ccccc21)c1ccc(Cl)cc1Cl study_target="Plasmodium falciparum NF54 asexual blood stage" observed_measurement=-6.87
structure_smiles_string=O=C(O)[C@H]1C2CCC(CC2)[C@@H]1Nc1nc(-c2c[nH]c3ncc(F)cc23)ncc1F study_target="Plasmodium falciparum NF54 asexual blood stage" observed_measurement=55.2
structure_smiles_string=O=C(c1ccccc1)N1CCN(c2ccccc2NC(=O)C(Cl)(Cl)Cl)CC1 study_target="Plasmodium falciparum NF54 asexual blood stage" observed_measurement=118
structure_smiles_string=C=C(C)[C@@H]1CC[C@]2(C(=O)O)CC[C@]3(C)[C@H](CC[C@@H]4[C@@]5(C)CC[C@H](O)C(C)(C)[C@@H]5CC[C@]43C)[C@@H]12 study_target="Plasmodium falciparum NF54 asexual blood stage" observed_measurement=67.2
structure_smiles_string=Cc1cc(C2CCCCC2)n(O)c(=O)c1 study_target="Plasmodium falciparum NF54 asexual blood stage" observed_measurement=77.8
structure_smiles_string=CCCCCc1ccc(C(=O)NCCn2cc(CCCCCc3cnc(N)[nH]3)nn2)cc1 study_target="Plasmodium falciparum NF54 asexual blood stage" observed_measurement=96.5
structure_smiles_string=COc1ccc(NS(=O)(=O)c2ccc(Cl)s2)cn1 study_target="Plasmodium falciparum NF54 asexual blood stage" observed_measurement=48.5
structure_smiles_string=Cc1ccc(S(=O)(=O)Nc2cccc3cccnc23)cc1 study_target="Plasmodium falciparum NF54 asexual blood stage" observed_measurement=103

----------
Tested on: Plasmodium berghei ANKA liver stage in HepG2-A16-CD81
protocol.notes: % inhibition of liver stage parasite viability (luciferase); higher = more inhibition
test.context: 5 µM; 48 h
endpoint.label: % inhibition of liver stage parasite viability (%)

structure_smiles_string=CSC[C@H]1CN(Cc2c[nH]c3c(N)ncnc23)C[C@@H]1O measure_unit=% observed_measurement=40.2
structure_smiles_string=CC(C)n1cnc2c(NCc3ccccc3)nc(NCc3ccccc3)nc21 measure_unit=% observed_measurement=17.1
structure_smiles_string=COc1cc(NC(=O)CN2C(=O)NC(c3ccccc3)(c3ccccc3)C2=O)cc(OC)c1 measure_unit=% observed_measurement=9.85
structure_smiles_string=CC(C)(C)c1ccc(C(=O)NC(=O)N2CCCc3ccccc32)cc1 measure_unit=% observed_measurement=15.6
structure_smiles_string=O=C(CP(=O)(O)O)NCCc1cccc(Oc2ccccc2)c1 measure_unit=% observed_measurement=27.3

----------
List of % inhibition of gametocyte viability values.
Tested on: Plasmodium falciparum NF54 stage IV/V gametocytes
protocol.notes: % inhibition of gametocyte viability (PrestoBlue); higher = more inhibition
test.context: 1 µM; 48 h
endpoint.label: % inhibition of gametocyte viability (%)

structure_smiles_string=Cc1nc2ccc(Cl)cc2c(-c2ccccc2)c1CC(=O)O measure_unit=% value_prefix=< observed_measurement=0
structure_smiles_string=Cc1cc(Nc2ccc(F)cc2)nc(SCc2nc3ccccc3[nH]2)n1 measure_unit=% value_prefix== observed_measurement=19
structure_smiles_string=Cc1cccc(C)c1C(=O)Nc1nc(-c2ccccn2)cc2ccccc12 measure_unit=% value_prefix== observed_measurement=13.5
structure_smiles_string=O=S(=O)(Nc1ccccc1)c1ccc(NC(=S)Nc2ccccc2)cc1 measure_unit=% value_prefix== observed_measurement=7.06
structure_smiles_string=O=C(O)C[C@H]1CC[C@H](c2ccc(-c3ccc(Nc4ccc(C(F)(F)F)nc4)cn3)cc2)CC1 measure_unit=% value_prefix== observed_measurement=24.3

----------
Test system: Plasmodium berghei ANKA liver stage in HepG2-A16-CD81
protocol.notes: % inhibition of liver stage parasite viability (luciferase); higher = more inhibition
test.context: 5 µM; 48 h
// NB: equality with 40% counts as false (0); only % inhibition of liver stage parasite viability strictly below is true (1)

molecule="CC1CCc2c(N3CCC(O)CC3)c(F)cc3c(=O)c(C(=O)O)cn1c23 (centres undefined)" label_value="true (1)"
molecule=CC1(C)CC(NC(=O)C(=O)Nc2ccc(Cl)cc2)CC(C)(C)N1 label_value="true (1)"
molecule=NC(=O)c1cnc2ccc(S(=O)(=O)c3ccccc3)cc2c1Nc1ccc(O)cc1 label_value="false (0)"
molecule=Nc1nc2c(ncn2/C=C2/CC2(CO)CO)c(=O)[nH]1 label_value="true (1)"
molecule=C[Si]1(C)CCN(Cc2cc(-c3ccc(Cl)cc3)n(-c3ccc(Cl)cc3)n2)CC1 label_value="true (1)"
molecule=O=c1nc(N2CCN(CC3CCCCC3)CC2)sc2c([N+](=O)[O-])cc(C(F)(F)F)cc12 label_value="true (1)"
molecule=Cc1c[nH]c(=O)nc1NCc1ccccc1 label_value="true (1)"
molecule=Cc1cc(-c2ccccc2)c(C(=O)C(=O)Nc2ccc(N3CCN(c4ncc(F)cn4)CC3)cc2)n1C label_value="false (0)"
molecule="CC(C)(C)c1ccc(C(Cn2cccc(C(F)(F)F)c2=O)NC2Cc3ccccc3C2)cc1 (centres undefined)" label_value="true (1)"
molecule="CCOC(=O)Nc1cc(NC(C)CC(C)CN(CC)CC)c2nc(-c3ccccc3)c(-c3ccccc3)nc2n1 (centres undefined)" label_value="false (0)"
molecule=O=C(NCc1ncc(C(F)(F)F)cc1Cl)c1c(Cl)cccc1Cl label_value="true (1)"
molecule=O=C(O)c1sccc1S(=O)(=O)n1ccc2cc(Br)ccc21 label_value="true (1)"
molecule=O=C(O)c1ccccc1Sc1ncnc2sc3c(c12)CCC3 label_value="true (1)"
molecule=C[C@H](c1cccc2ccccc12)N(C)Cc1ccccc1 label_value="true (1)"
molecule="C[C@H](NC(CC(=O)c1ccccc1C(F)(F)F)C(=O)O)c1ccccc1 (some centres undefined)" label_value="true (1)"
molecule=CC(C)(C)c1cc(C(=O)/C(C#N)=N/Nc2cccc(Cl)c2)no1 label_value="false (0)"
molecule=CNc1nc(=O)[nH]cc1F label_value="true (1)"
molecule=Cc1cccc(CC(=O)N[C@H]2CCOC2=O)c1 label_value="true (1)"
